- experimental-target: histone deacetylase 3 (HDAC3) (Homo sapiens)
- Construct: full length human HDAC3 (NP_003874.2) with a C-terminal FLAG tag, in complex with human NCOR2 amino acids 395–489 with an N-terminal 6xHis tag; with NCOR2 (SMRT) amino acids 395–489
- Sequence (O15379 whole entry, the tested form may be a part): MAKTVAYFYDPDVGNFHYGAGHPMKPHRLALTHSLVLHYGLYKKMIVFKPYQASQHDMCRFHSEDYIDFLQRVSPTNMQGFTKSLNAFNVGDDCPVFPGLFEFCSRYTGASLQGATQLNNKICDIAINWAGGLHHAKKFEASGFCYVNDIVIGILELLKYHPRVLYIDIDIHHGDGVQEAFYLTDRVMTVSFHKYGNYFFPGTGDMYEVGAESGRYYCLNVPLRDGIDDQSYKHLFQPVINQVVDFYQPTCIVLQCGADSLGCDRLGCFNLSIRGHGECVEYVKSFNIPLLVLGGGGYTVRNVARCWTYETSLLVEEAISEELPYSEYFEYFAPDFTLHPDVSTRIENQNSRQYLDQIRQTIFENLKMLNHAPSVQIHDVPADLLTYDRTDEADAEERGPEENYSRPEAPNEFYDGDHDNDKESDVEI
- Sequence (Q9Y618 395-489 partner): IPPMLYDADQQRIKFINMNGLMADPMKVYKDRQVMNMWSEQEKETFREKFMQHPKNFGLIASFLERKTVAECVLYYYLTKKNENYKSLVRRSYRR
- measurement-description: Fluor de Lys fluorescent deacetylase assay, fractional activity vs [10-HDA]
measured-parameter: pKi
Scale: pKi equals -log10([C]), with [C] in mol/L.

Problem: What value of measured pKi is listed for O=C(O)/C=C/CCCCCCCO [10-HDA, 10-hydroxy-2E-decenoic acid] ?
Result: 2.27
